- procedure_details: Pharmacokinetic studies in male SD rats
- Type: in vivo
- protocol_conditions: rat, plasma, po, I.G. 15 mg/kg
Structures can show the parent of a compound that is named as a salt.
measured_parameter: AUC(0-inf) (ng·h/mL)
Dear colleague, please return just the value in ng·h/mL, with no unit written.

Challenge: Could you tell me which AUC(0-inf) is on file for Cc1ccc(C(=O)Nc2ccc(CN3CCN(C)CC3)c(C(F)(F)F)c2)cc1C#Cc1cnc2[nH]ccc2n1 [Example 27, hydrochloride] ?
Response given: 5220

###

- procedure_details: Pharmacokinetic studies in male SD rats
- Format: in vivo
- protocol_conditions: rat, plasma, po, I.G. 15 mg/kg
Counter-ions that a name gives are not always drawn.
measured_parameter: AUC(0-t)

Challenge: Could you tell me which AUC(0-t) is on file for Cc1ccc(C(=O)Nc2ccc(CN3CCN(C)CC3)c(C(F)(F)F)c2)cc1C#Cc1cnc2[nH]ccc2n1 [Example 27, hydrochloride] ?
Response given: 5370 ng·h/mL
